test: in vitro; settings: cynomolgus monkey, 20% fecal homogenate (supernatant), anaerobic, pH 6.8
Numbered stars: 1 amine (or outer) side, 2 acyl side, 3 side chain; on linkers, the order of the positions; unused ones are H or OH. Bridge positions count the residues as written; N and C are the ends. Square brackets hold non-standard residues; d marks the D form. Peptide text beside a SMILES is read from it. X2 = CCCc1cccc2c(C[C@H](N[*:1])C(=O)[*:2])c[nH]c12; Trp(7-Me) = Cc1cccc2c(C[C@H](N)C(=O)O)c[nH]c12; Abu(4-yl) = O=C([C@H](CC[*:3])N[*:1])[*:2]; 2Nal = N[C@@H](Cc1ccc2ccccc2c1)C(=O)O; AEF = NCCOc1ccc(C[C@H](N)C(=O)O)cc1; Cit = NC(=O)NCCC[C@H](N)C(=O)O; Pen = CC(C)(S)[C@H](N)C(=O)O; αMeK = C[C@](N)(CCCCN)C(=O)O

{"COMPOUND": "CC(=O)NCCCC[C@H](NC(=O)[C@](C)(CCCCN)NC(=O)[C@H](Cc1ccc2ccccc2c1)NC(=O)[C@H](Cc1ccc(OCCN)cc1)NC(=O)[C@H]1NC(=O)[C@H](CCCNC(N)=O)NC(=O)[C@H](Cc2c[nH]c3c(C)cccc23)NC(=O)[C@H]([C@@H](C)O)NC(=O)[C@H](CC(N)=O)NC(=O)[C@@H](NC(C)=O)C(C)(C)SSC1(C)C)C(=O)N[C@@H](CC(N)=O)C(=O)N[C@H](C(N)=O)[C@@H](C)O [compound 262] (Ac-[Pen]NT[Trp(7-Me)][Cit][Pen][AEF][2Nal][αMeK]K(Ac)NT-NH2; disulfide 1-6)", "VALUE_COMPARATOR": "=", "half-life at 20 μM, min": 180}
{"COMPOUND": "CC(=O)NCCCC[C@H](NC(=O)[C@](C)(CCCCN)NC(=O)[C@H](Cc1ccc2ccccc2c1)NC(=O)[C@H](Cc1ccc(OCCN)cc1)NC(=O)[C@H]1NC(=O)[C@H](CCCNC(N)=O)NC(=O)[C@H](Cc2c[nH]c3c(C)cccc23)NC(=O)[C@H]([C@@H](C)O)NC(=O)[C@H](CC(N)=O)NC(=O)[C@@H](NC(C)=O)C(C)(C)SSC1(C)C)C(=O)N[C@@H](CC(N)=O)C(=O)N[C@H](Cc1ccc(O)cc1)C(N)=O [compound 259] (Ac-[Pen]NT[Trp(7-Me)][Cit][Pen][AEF][2Nal][αMeK]K(Ac)N[dY]-NH2; disulfide 1-6)", "VALUE_COMPARATOR": "=", "half-life at 20 μM, min": 960}
{"COMPOUND": "CC(=O)NCCCC[C@H](NC(=O)[C@](C)(CC(C)C)NC(=O)[C@H](Cc1ccc2ccccc2c1)NC(=O)[C@H](Cc1ccc(OCCN)cc1)NC(=O)[C@H]1NC(=O)[C@H](CCC(N)=O)NC(=O)[C@H](Cc2c[nH]c3c(C)cccc23)NC(=O)[C@H]([C@@H](C)O)NC(=O)[C@H](CC(N)=O)NC(=O)[C@@H](NC(C)=O)C(C)(C)SSC1(C)C)C(=O)N(C)[C@@H](C)C(=O)NCCC(N)=O", "VALUE_COMPARATOR": ">", "half-life at 20 μM, min": 1440}
{"COMPOUND": "CC(=O)NCCCC[C@H](NC(=O)[C@](C)(CCCCN)NC(=O)[C@H](Cc1ccc2ccccc2c1)NC(=O)[C@H](Cc1ccc(OCCN)cc1)NC(=O)[C@H]1NC(=O)[C@H](CCC(N)=O)NC(=O)[C@H](Cc2c[nH]c3c(C)cccc23)NC(=O)[C@H]([C@@H](C)O)NC(=O)[C@H](CC(N)=O)NC(=O)[C@@H](NC(C)=O)C(C)(C)SSC1(C)C)C(=O)N[C@@H](CC(C)C)C(=O)NCCC(N)=O", "VALUE_COMPARATOR": ">", "half-life at 20 μM, min": 1440}
{"COMPOUND": "CCCc1cccc2c(C[C@@H]3NC(=O)[C@H]([C@@H](C)O)NC(=O)[C@H](CC(N)=O)NC(=O)[C@@H](NC(C)=O)C(C)(C)SSC(C)(C)[C@@H](C(=O)N[C@@H](Cc4ccc(OCCN)cc4)C(=O)N[C@@H](Cc4ccc5ccccc5c4)C(=O)N[C@@](C)(CCCCN)C(=O)N[C@@H](CCCCNC(C)=O)C(=O)N[C@@H](CC(N)=O)C(=O)N[C@H](CC(C)C)C(N)=O)NC(=O)[C@H](CCCCNC(C)=O)NC3=O)c[nH]c12 [compound 285] (Ac-[Pen]NT[X2]K(Ac)[Pen][AEF][2Nal][αMeK]K(Ac)N[dL]-NH2; disulfide 1-6)", "VALUE_COMPARATOR": ">", "half-life at 20 μM, min": 1440}
{"COMPOUND": "CC(=O)NCCCC[C@H](NC(=O)[C@](C)(CCCCN)NC(=O)[C@H](Cc1ccc2ccccc2c1)NC(=O)[C@H](Cc1ccc(OCCN)cc1)NC(=O)[C@H]1NC(=O)[C@H](CCCNC(N)=O)NC(=O)[C@H](Cc2c[nH]c3c(C)cccc23)NC(=O)[C@H]([C@@H](C)O)NC(=O)[C@H](CC(N)=O)NC(=O)[C@@H](NC(C)=O)C(C)(C)SSC1(C)C)C(=O)N[C@@H](CC(N)=O)C(=O)N[C@@H](CO)C(N)=O [compound 260] (Ac-[Pen]NT[Trp(7-Me)][Cit][Pen][AEF][2Nal][αMeK]K(Ac)NS-NH2; disulfide 1-6)", "VALUE_COMPARATOR": "=", "half-life at 20 μM, min": 180}
{"COMPOUND": "CC(=O)NCCCC[C@H](NC(=O)[C@](C)(CCCCN)NC(=O)[C@H](Cc1ccc2ccccc2c1)NC(=O)[C@H](Cc1ccc(OCCN)cc1)NC(=O)[C@H]1NC(=O)[C@H](CCC(N)=O)NC(=O)[C@H](Cc2c[nH]c3cc(C)ccc23)NC(=O)[C@H]([C@@H](C)O)NC(=O)[C@H](CC(N)=O)NC(=O)[C@@H](NC(C)=O)C(C)(C)SSC1(C)C)C(=O)N[C@@H](CC(N)=O)C(=O)NCCC(N)=O", "VALUE_COMPARATOR": "=", "half-life at 20 μM, min": 600}
{"COMPOUND": "CC(=O)NCCCC[C@@H]1NC(=O)[C@H](Cc2c[nH]c3c(C)cccc23)NC(=O)[C@H]([C@@H](C)O)NC(=O)[C@H](CCC(N)=O)NC(=O)[C@@H](NC(=O)[C@@H](CCCNC(=N)N)NC(C)=O)CCSC[C@@H](C(=O)N[C@@H](Cc2ccc(OCCN)cc2)C(=O)N[C@@H](Cc2ccc3ccccc3c2)C(=O)N[C@@](C)(CCCCN)C(=O)N[C@@H](CCCCNC(C)=O)C(=O)N[C@@H](CC(N)=O)C(N)=O)NC1=O [compound 326] (Ac-[dR][Abu(4-yl)]QT[Trp(7-Me)]K(Ac)C[AEF][2Nal][αMeK]K(Ac)N-NH2; thioether 2-7)", "VALUE_COMPARATOR": "=", "half-life at 20 μM, min": 660}
{"COMPOUND": "CC(=O)NCCCC[C@H](NC(=O)[C@](C)(CC(C)C)NC(=O)[C@H](Cc1ccc2ccccc2c1)NC(=O)[C@H](Cc1ccc(OCCN)cc1)NC(=O)[C@H]1NC(=O)[C@H](CCC(N)=O)NC(=O)[C@H](Cc2c[nH]c3c(C)cccc23)NC(=O)[C@H]([C@@H](C)O)NC(=O)[C@H](CC(N)=O)NC(=O)[C@@H](NC(C)=O)C(C)(C)SSC1(C)C)C(=O)N[C@H](Cc1ccccc1)C(=O)NCCC(N)=O", "VALUE_COMPARATOR": ">", "half-life at 20 μM, min": 1440}
